# ASSAY NOTES: yeast display, Sf9 membrane polyspecificity reagent, FACS + sequencing; frameworks hold sequencing errors
READOUT LABEL: polyreactivity (PSR sort gate)

Need polyreactivity (PSR sort gate), item QVQLVESGGGLVQAGGSLRLSCAASGSIFKKYAMGWYRQAPGKERELFAAITRGTYYADSVKGRFTISRDNAKNTVYFQMNSLKPEDTAVYFCNREYWGRGYYRVRGEYDYWGQGTQVTVSS
low polyreactivity

Need polyreactivity (PSR sort gate), item QVQLVESGGGLVQAGGSLRLSCAASGFTFKLYAMGWYRQAPGKERELVAVITTSGGRTYYADSVKGRFTISRDNANNTVYLQMTSLKPEDTAVYYCAKVVFVRVAPGYYWGQGTQVTVSS
high polyreactivity

Need polyreactivity (PSR sort gate), item QVQLVESGGGLVQVGGSLRLSCAASGITLSYYAMGWYRQAPGKEREFVASITVSRTSTYYADSVKGRFTISRDNAKNTVYLQMNSLKPEDTAVYYCAAYAYQYRFSGYGYWGQGTQVTVSS
low polyreactivity

Need polyreactivity (PSR sort gate), item QVQLVESGGGLVQAGGSLRLSCAASGRTFRYYAMGWYRQAPGKERELVAAISSGGSTNYADSVKGRFTISRDNAKITVYLQMNSLKPEDTAVYYCAALWSGNKFNYWGQGTQVTVSS
low polyreactivity

Next:
Need polyreactivity (PSR sort gate), item QVQLVESGGGLVQAGGSLRLSCAASGSIFVRYDMGWYRQAPGKERELVAAISWNGGRTYYADSVKGRFTISRDNAKNTVYLQMNSLKPEDTAVYYCNAVSKGLGSGLDYWGQGTQVTVSS
high polyreactivity

* * *

# ASSAY NOTES: yeast display, Sf9 membrane polyspecificity reagent, FACS + sequencing; frameworks hold sequencing errors
READOUT LABEL: polyreactivity (PSR sort gate)

Need polyreactivity (PSR sort gate), item QVQLVESGGGLVQAGGSLRLSCAASGRIFYVYAMGWYRPAPGKERELVAAITQSGGRTYYADSVKGRFTISRDNAKNTVYLQMNSLKPEDTAVYYCNADGDDLDWNYYLVQYDYWGQGTQVTVSS
low polyreactivity

Need polyreactivity (PSR sort gate), item QVQLVESGGGLVQAGGSLRLSCAASGSIFSSNAMGWYRQAPGKERELVAAITGSDGSTYYADSVKGRFTISRDNAKNTVYLQMNSLKPEDTAVYYCAAVGRYYYFDGFYYWGQGTQVTVSS
low polyreactivity

Need polyreactivity (PSR sort gate), item QVQLVESGGGLVQAGGSLRLSCAASGSTLFFNARGWYRQAPGKERELVAGITDGGNTNYADSVKGRFTISRDNAKNTVYLQMNSLKPEDTAVYYCNARYSKKGESQREYDYWGQGTQVTVSS
low polyreactivity

Need polyreactivity (PSR sort gate), item QVQLVESGRGLVQAGGSLRLSCAASVNIFRGYTMGRYRQAPGTERELVATITWNGVSTFYADSVKGRFTISRDNAKNTVYLQMHSLKPEDTAVYYCAAYYPSHDYSGFWSDTYEYWGQGTQVTVSS
low polyreactivity

Need polyreactivity (PSR sort gate), item QVQLVESGGGLVQAGGSLRLSCAASGRIFYPYAMGWYRQAPGKERELVAAISYSGGSTFYADSVKGRFTISRDNAKNTVYLQMNSLKPEDTAVYYCIKPGLYIYGSWGQGTQVTVSS
high polyreactivity

Next:
Need polyreactivity (PSR sort gate), item QVQLVESGGGLVQAGGSLRLSCAASGSTFRYNAMGWYRQAPGKERELVASINRGGGGTYYADSVKGRFTISRDNAKKTVYLQMNSLKPEDTAVYYCAKARFTRGTWFYYWGQGTQVTVSS
high polyreactivity

Need polyreactivity (PSR sort gate), item QVQLVESGGGLVQAGGSLRLSCAASGSIFFRYAMGWYRQATGKERELVARISWGGGRTYYADSVKGRFTISRDNAKNTVYLQMNSLKPEDTAVYYCNRAYWVNPGGFEYWGQGTQVTVSS
high polyreactivity

Need polyreactivity (PSR sort gate), item QVQLVESGGGLVQAGGSLRLSCAASGYIFYQYAMGWDRQAPGKERELVAGINWRGGSTYADSVKGRFTISRDNAKITVYLQMNSLKPEDTEVYYCNANQYRQDVFRRPSYYAYYYWGQGTQVTVSS
high polyreactivity

Need polyreactivity (PSR sort gate), item QVQLVESGGGLVQAGCSLRLICAASGYIFVIYAMGWNRQAPGKERELVAAISSSGAGTYYADSVKGRFTISRDNAKNTVYLQMNSLKPEDTAVYYCAASESAVFDGYDYWGQGTQVTVSS
high polyreactivity

Need polyreactivity (PSR sort gate), item QVQLVESGGGLVQAGGSLRLSCAASGLILGVYTMGWYRQAPGKEREFVASINYGGGSTYYADSVKGRFTISRDNAKNTVYLQMNSLKPEDTAVYYCNARSRWGGTRLYSYDYWGQGTQVTVSS
low polyreactivity

Need polyreactivity (PSR sort gate), item QVQLVESGGGLVQAGGSLRLSCAASGSTFGYNGMGWFRQAPGKERELVAAISGGARTYADSVKGRFTISRDNAKNTVYLQMNSLKPEDTAVYYCAAGVFHIFSRGNYDPSEYEYWGQGTQVTVSS
low polyreactivity

Cited source for all entries: the nanobody polyreactivity screen of Harvey et al. (2022)
